Test: chemical genetic growth profiling, strain panel (AID 1159580);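 also: tested at 20 µM; growth read once vehicle control cultures reached saturation at 30 °C; 1 = growth at the plate median or of vehicle wells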
Settings: S. cerevisiae deletion strains, growth OD, locus YNL071W, strain lat1, stronger effect = lower value
The campaign covered roughly 5,500 compounds. About 2,000 (36%) were called active. Inconclusive results (about 18%) are left out. The list shows a part of the results.
Recorded normalized growth for the following molecules
Format: numeric value only, no unit, no commentary.

Here are 4 molecules together with their reported answers.
OC1C(O)C(O)C(O)C(O)C1O (stereo not given)
1
CC(C)c1ccc2c(c1O)CC[C@H]1C3=C(CC[C@]21C)C(=O)OC3
0.853
ClC(Cl)=C(c1ccc(Cl)cc1)c1ccc(Cl)cc1
1
O=c1cc(-c2ccc(O)c(O)c2)oc2ccccc12
0.965

Prompt: Find the recorded normalized growth belonging to O=c1cc(-c2ccc(O)cc2)oc2ccc(O)cc12 and report it.
Completion: 0.984

Prompt: Find the recorded normalized growth belonging to CC(=O)Oc1cc(-c2coc3cc(OC(C)=O)c(OC(C)=O)c(OC(C)=O)c3c2=O)cc(OC(C)=O)c1OC(C)=O and report it.
Completion: 0.979

Prompt: Find the recorded normalized growth belonging to Cn1nnnc1SCC1=C(C(=O)O)N2C(=O)C(NC(=O)C(O)c3ccccc3)C2SC1 (stereo not given) and report it.
Completion: 0.978

Prompt: Find the recorded normalized growth belonging to COC(=O)C1=C(C)NC(C)=C(C(=O)OCCN(C)Cc2ccccc2)C1c1cccc([N+](=O)[O-])c1 (stereo not given) and report it.
Completion: 0.97

Prompt: Find the recorded normalized growth belonging to COC(=O)C1=C(C)NC(C)=C(C(=O)OC)C1c1ccccc1[N+](=O)[O-] and report it.
Completion: 0.941

Prompt: Find the recorded normalized growth belonging to COc1cc([C@@H]2c3cc4c(cc3[C@H](O)[C@H]3COC(=O)[C@@H]23)OCO4)cc(OC)c1OC and report it.
Completion: 1.02

----------
Test: chemical genetic growth profiling, strain panel (AID 1159580)
Details: S. cerevisiae deletion strains, growth OD, locus YLR258W, strain gsy2, stronger effect = lower value
Among all 5,500 compounds or so, about 2,000 (36%) were called active. Inconclusive results (about 18%) are left out. The list shows a part of the results.
Recorded normalized growth for the following molecules
Format: numeric value only, no unit, no commentary.

Here are 4 molecules together with their reported answers.
CC(C(=O)O)[C@H]1CCC2C3CC=C4C[C@@H](O)CC[C@]4(C)C3CC[C@@]21C (stereo not given in full)
1.02
CN1CCN2c3ccccc3Cc3ccccc3C2C1 (stereo not given)
0.987
CC(=O)OCC(=O)[C@H]1CCC2C3CC=C4C[C@@H](O)CC[C@]4(C)C3CC[C@@]21C (stereo not given in full)
0.963
CC(=O)[C@H]1CCC2C3CC=C4C[C@@H](O)CC[C@]4(C)C3CC[C@@]21C (stereo not given in full)
0.961

# evaluate next
Prompt: Find the recorded normalized growth belonging to CCC(CCC(C)[C@H]1CCC2C3CC=C4C[C@@H](O)CC[C@]4(C)C3CC[C@@]21C)C(C)C (stereo not given in full) and report it.
Completion: 1

----------
Assay: chemical genetic growth profiling, strain panel (AID 1159580)
Conditions: S. cerevisiae deletion strains, growth OD, locus YML120C, strain ndi1, stronger effect = lower value
The whole screen tested about 5,500 compounds, of which about 2,000 (36%) were called active. Another 18% or so got no clear call; they are omitted. Some of the results follow.
normalized growth vs 1: less than gives 1 (yes); not less than gives 0 (no).

Examples with answers:
NC(=O)CC[C@@H](N)C(=O)O
0 (no)
CCCCOc1cc(CC2CNC(=O)N2)ccc1OC (stereo not drawn)
1 (yes)
CCCCCCCCCCCCCCCC[n+]1ccccc1
1 (yes)
CC(=O)Oc1c(-c2ccccc2)oc2c(CC=C(C)C)c3c(c(OC(C)=O)c2c1=O)C=CC(C)(C)O3
0 (no)
CC1=NCCc2c1[nH]c1cc(O)ccc21
1 (yes)
O=C(O)c1cc(=O)c2ccccc2o1
1 (yes)
COCCOC(=O)C1=C(C)NC(C)=C(C(=O)OC(C)C)C1c1cccc([N+](=O)[O-])c1 (stereo not drawn)
0 (no)
CC(=O)O.CC(=O)O.[Cd]
1 (yes)
COc1cc2c3cc1Oc1cc(ccc1O)C[C@@H]1c4c(cc(OC)c(O)c4Oc4ccc(cc4)C[C@@H]3N(C)CC2)CC[N+]1(C)C
0 (no)
COc1c(O)cc2c(-c3ccccc3)cc(=O)oc2c1OC
1 (yes)

Prompt: Check if normalized growth falls below 1 for CC(C)Oc1ccc2c(=O)cc(-c3ccccc3)oc2c1 .
Completion: 1 (yes)

Prompt: Check if normalized growth falls below 1 for CC1=CCc2c(cc3oc(C)cc(=O)c3c2O)OC1 .
Completion: 1 (yes)

Prompt: Check if normalized growth falls below 1 for CC(C)=CCc1c2c(c(O)c3c(=O)c(O)c(-c4ccccc4)oc13)C=CC(C)(C)O2 .
Completion: 1 (yes)

Prompt: Check if normalized growth falls below 1 for COc1cccc(-c2cc(=O)c3ccc(OC)cc3o2)c1 .
Completion: 1 (yes)

Prompt: Check if normalized growth falls below 1 for O=c1c2ccccc2[se]n1-c1ccccc1 .
Completion: 1 (yes)

Prompt: Check if normalized growth falls below 1 for COc1ccc(-c2cc(=O)c3ccccc3o2)cc1 .
Completion: 1 (yes)

Prompt: Check if normalized growth falls below 1 for C[n+]1cc2c3c(ccc2c2ccc4cc5c(cc4c21)OCO5)OCO3 .
Completion: 1 (yes)

Prompt: Check if normalized growth falls below 1 for O=c1cc(-c2ccc(O)cc2)oc2ccc(O)cc12 .
Completion: 1 (yes)

Prompt: Check if normalized growth falls below 1 for COc1ccc(-c2cc(=O)c3cc(OC)ccc3o2)cc1 .
Completion: 1 (yes)

----------
Test: chemical genetic growth profiling, strain panel (AID 1159580);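 also: tested at 20 µM; growth read once vehicle control cultures reached saturation at 30 °C; 1 = growth at the plate median or of vehicle wells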
Conditions: S. cerevisiae deletion strains, growth OD, locus YJR043C, strain POL32, stronger effect = lower value
Among all 5,500 compounds or so, about 2,000 (36%) were called active. Inconclusive results (about 18%) are left out. Some of the results follow.
Recorded normalized growth for the following compounds
Format: numeric value only, no unit, no commentary.

Here are 8 compounds together with their reported answers.
Cc1ccc(COc2ccc(C)nc2[N+](=O)[O-])cc1
0.872
CCCCCCCCCCCCCCCC[n+]1ccccc1
0.0648
Cc1ccc(C(=O)c2ccccc2[N+](=O)[O-])cc1
0.99
CCC(/C=C/[C@@H](C)[C@H]1CCC2C3CC=C4C[C@@H](O)CC[C@]4(C)C3CC[C@@]21C)C(C)C (stereo partly drawn)
1.04
Cc1cc2cc3c(C)cc(=O)oc3c(C)c2o1
0.89
O=C(NNC(=O)c1ccccc1[N+](=O)[O-])c1ccc(Cl)cc1
0.869
CC[N+]1(C)CCCC(OC(=O)C(O)(c2ccccc2)c2ccccc2)C1 (stereo not drawn)
1.04
COc1cc(NC(=O)NS(=O)(=O)c2ccc(C)cc2)cc(C(F)(F)F)c1
0.998

Prompt: Find the recorded normalized growth belonging to CC(C)[C@]12O[C@H]1[C@@H]1O[C@@]13[C@@]1(C)CCC4=C(COC4=O)[C@@H]1C[C@@H]1O[C@@]13C2=O and report it.
Completion: 0.987

Prompt: Find the recorded normalized growth belonging to O=C(Nc1ccccc1SCc1cccc(C(F)(F)F)c1)c1c(F)cccc1Cl and report it.
Completion: 0.988

Prompt: Find the recorded normalized growth belonging to Cc1cc(=O)c2c(o1)-c1c(cc(O)c(O)c1C(=O)O)OC2 and report it.
Completion: 0.997

Prompt: Find the recorded normalized growth belonging to O=c1[nH]c2cc(Cl)c(Cl)cc2[nH]c1=O and report it.
Completion: 1.01

Prompt: Find the recorded normalized growth belonging to CC1NC(=O)NC1=O (stereo not drawn) and report it.
Completion: 1.01

----------
Experiment: chemical genetic growth profiling, strain panel (AID 1159580);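 also: tested at 20 µM; growth read once vehicle control cultures reached saturation at 30 °C; 1 = growth at the plate median or of vehicle wells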
Conditions: S. cerevisiae deletion strains, growth OD, locus YOR080W, strain dia2
About 2,000 (36%) of roughly 5,500 compounds were called active. Another 18% or so got no clear call; they are omitted. No stated cut-off is given here; in the data, active means normalized growth mostly below about 0.91 (no sharp cut-off); inconclusive means no clear call, values can overlap the other calls; inactive means mostly above about 0.92. The list shows a part of the results.
Permitted responses: class 1 (active), class 0 (inactive)

COC(=O)C1=C(C)NC(C)=C(C(=O)OC)C1c1ccccc1[N+](=O)[O-]
class 0
CC(C)(Oc1ccc(Cl)cc1)C(=O)O
class 0
O=C(O)c1cn(-c2ccc(F)cc2)c2cc(N3CCNCC3)c(F)cc2c1=O
class 0

Prompt: Which result was noted for this compound in the test: CCn1cc(C(=O)O)c(=O)c2cc(F)c(N3CCNCC3)cc21
Completion: class 0

Prompt: Which result was noted for this compound in the test: O=C(O)c1nc2cc(Cl)c(Cl)cc2[nH]c1=O
Completion: class 0

----------
Test: chemical genetic growth profiling, strain panel (AID 1159580);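 also: tested at 20 µM; growth read once vehicle control cultures reached saturation at 30 °C; 1 = growth at the plate median or of vehicle wells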
Conditions: S. cerevisiae deletion strains, growth OD, locus YNL248C, strain rpa49, stronger effect = lower value
Hit rate of the full screen: of about 5,500 compounds, about 2,000 (36%) were called active. Not shown: some 18% with an inconclusive outcome. This is one part of the list.
Recorded normalized growth for the following compounds

Nc1nc(N)c2nc(-c3ccccc3)c(N)nc2n1
0.969 (inactive)
CC(C)(C)C(=O)C(Oc1ccc(Cl)cc1)n1cncn1 (configuration not stated)
0.142 (active)
O=c1c(-c2ccccc2)coc2cc(O)cc(O)c12
0.989 (inactive)
O=C1CN2Cc3c(ccc(Cl)c3Cl)N=C2N1
0.997 (inactive)
N[C@@H]1CONC1=O
0.94 (inactive)

Prompt: Find the recorded normalized growth belonging to CC(=O)N(O)CCCCCNC(=O)CCC(=O)N(O)CCCCCNC(=O)CCC(=O)N(O)CCCCCN and report it.
Completion: 1.08 (inactive)

Prompt: Find the recorded normalized growth belonging to C=CCCCCCCCCCCCC(O)CC(O)CO (configuration not stated) and report it.
Completion: 0.993 (inactive)

Prompt: Find the recorded normalized growth belonging to CN1CCOC(c2ccccc2)c2ccccc2C1 (configuration not stated) and report it.
Completion: 0.954 (inactive)

Prompt: Find the recorded normalized growth belonging to COc1ccc(C(=O)/C=C/c2ccccc2)cc1 and report it.
Completion: 0.687 (active)

Prompt: Find the recorded normalized growth belonging to CCCCCCCCCc1ccc(O)cc1 and report it.
Completion: 0.076 (active)

Prompt: Find the recorded normalized growth belonging to CN(N=O)C(=O)N[C@@H]1[C@@H](O)[C@H](O)[C@@H](CO)O[C@@H]1O and report it.
Completion: 0.978 (inactive)

Prompt: Find the recorded normalized growth belonging to CCN(CC)CCNc1ccc(CO)c2sc3ccccc3c(=O)c12 and report it.
Completion: 1 (inactive)
